- assayed_target: Fatty-acid amide hydrolase 1 (Rattus norvegicus)
- assay_explanation: Inhibition of rat recombinant FAAH expressed in Escherichia coli
Field: pKi. Provide a value for each of the compounds that follow.
One number for each entry, as −log10 of the molar value.

Worked cases, answers included:
smiles_notation=O=C(CCCCCCc1ccccc1Cl)c1ncc(-c2ccccn2)o1 reported_value=8.72
smiles_notation=O=C(CCCOCCc1ccccc1)c1ncc(-c2ccccn2)o1 reported_value=7.20
smiles_notation=O=C(CCCCCCc1cccnc1)c1ncc(-c2ccccn2)o1 reported_value=7.49
smiles_notation=Nc1ccc(CCCCCCC(=O)c2ncc(-c3ccccn3)o2)cc1 reported_value=8.52
smiles_notation=O=C(CCCCC#Cc1ccc(F)cc1)c1ncc(-c2ccccn2)o1 reported_value=7.44
smiles_notation=O=C(CCCCC#Cc1cccc([N+](=O)[O-])c1)c1ncc(-c2ccccn2)o1 reported_value=8.32
smiles_notation=CSc1ccc(CCCCCCC(=O)c2ncc(-c3ccccn3)o2)cc1 reported_value=8.60
smiles_notation=O=C(CCCCC#Cc1ccccn1)c1ncc(-c2ccccn2)o1 reported_value=6.55
smiles_notation=CCCCCCc1cccc(CCCCCCC(=O)c2ncc(-c3ccccn3)o2)c1 reported_value=7.82

In the following, a different compound is considered.
# get_value(readout= pKi, system= Fatty-acid amide hydrolase 1 (Rattus norvegicus)) for `O=C(CCCCCCc1cccc(F)c1)c1ncc(-c2ccccn2)o1` 8.66

----------
- assayed_target: Fatty-acid amide hydrolase 1 (Rattus norvegicus, UniProt P97612)
- Sequence (P97612 whole entry): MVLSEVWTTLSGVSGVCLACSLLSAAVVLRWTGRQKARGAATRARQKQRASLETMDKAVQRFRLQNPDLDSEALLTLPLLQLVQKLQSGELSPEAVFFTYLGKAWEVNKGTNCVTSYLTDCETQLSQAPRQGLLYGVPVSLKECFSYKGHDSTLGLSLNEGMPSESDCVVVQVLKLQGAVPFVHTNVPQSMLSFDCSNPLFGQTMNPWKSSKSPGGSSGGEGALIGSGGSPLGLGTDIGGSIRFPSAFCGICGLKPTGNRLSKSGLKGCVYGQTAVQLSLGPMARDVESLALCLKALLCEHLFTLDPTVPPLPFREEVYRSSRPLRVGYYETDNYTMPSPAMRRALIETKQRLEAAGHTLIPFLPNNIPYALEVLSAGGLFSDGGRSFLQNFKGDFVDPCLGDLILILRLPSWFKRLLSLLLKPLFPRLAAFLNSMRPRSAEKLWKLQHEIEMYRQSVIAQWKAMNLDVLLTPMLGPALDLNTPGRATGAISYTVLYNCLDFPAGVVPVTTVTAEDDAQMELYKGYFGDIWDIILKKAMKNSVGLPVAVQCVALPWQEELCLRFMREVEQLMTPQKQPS
- assay_explanation: Inhibition of rat recombinant FAAH expressed in Escherichia coli
measured_parameter: pKi
Give bare numbers, as −log10 of the molar value.

I need pKi for every entry listed below, if you could help.
1. O=C(c1ncc(-c2ccccn2)o1)C1CCCC1
2. COc1ccc(CCCCCCC(=O)c2ncc(-c3ccccn3)o2)cc1
3. O=C(C[S+]([O-])CCCCc1ccccc1)c1ncc(-c2ccccn2)o1 (stereo unspecified)

1: 5.60; 2: 8.21; 3: 6.00

Could you tell me pKi for each of these molecules? They are listed below.
1. O=C(CCCCC#Cc1cccc(Cl)c1)c1ncc(-c2ccccn2)o1
2. CS(=O)(=O)c1cccc(CCCCCCC(=O)c2ncc(-c3ccccn3)o2)c1

1: 8.15; 2: 8.89

----------
- assayed_target: Fatty-acid amide hydrolase 1 (Rattus norvegicus, UniProt P97612)
- assay_explanation: Inhibition of rat recombinant FAAH expressed in Escherichia coli
Kindly state Ki for each of the entries shown.
Give bare numbers, in nM.

molecule=COC(=O)c1ccc(CCCCCCC(=O)c2ncc(-c3ccccn3)o2)cc1 measured_parameter=Ki reported_value=1.5
molecule=Nc1cccc(CCCCCCC(=O)c2ncc(-c3ccccn3)o2)c1 measured_parameter=Ki reported_value=30
molecule=O=C(CSCCCCc1ccccc1)c1ncc(-c2ccccn2)o1 measured_parameter=Ki reported_value=4
molecule="O=C(CCCCCC(O)c1ccccc1)c1ncc(-c2ccccn2)o1 (stereo not drawn)" measured_parameter=Ki reported_value=35
molecule=Cc1ccccc1CCCCCCC(=O)c1ncc(-c2ccccn2)o1 measured_parameter=Ki reported_value=3
molecule=COC(=O)c1ccc(C#CCCCCC(=O)c2ncc(-c3ccccn3)o2)cc1 measured_parameter=Ki reported_value=25

// for each molecule below, give its Ki
1. COc1cccc(CCCCCCC(=O)c2ncc(-c3ccccn3)o2)c1
2. COC(=O)c1ccccc1CCCCCCC(=O)c1ncc(-c2ccccn2)o1
3. CC(C)(C)OC(=O)Nc1ccc(CCCCCCC(=O)c2ncc(-c3ccccn3)o2)cc1
4. COC(=O)c1cccc(C#CCCCCC(=O)c2ncc(-c3ccccn3)o2)c1
5. CCCCCCc1ccc(CCCCCCC(=O)c2ncc(-c3ccccn3)o2)cc1
6. O=C(CCCCCCc1ccccc1F)c1ncc(-c2ccccn2)o1
7. O=C(CCOCCCc1ccccc1)c1ncc(-c2ccccn2)o1

2.5
1
5.6
30
6.7
1.7
90

All figures here come from ChEMBL document CHEMBL1145407.
